Target: full-length recombinant human NEK7 (Homo sapiens (Human))
Assay: NEK7 Enzymatic Assay ([33P]-ATP, casein substrate)
readoutKind: IC50

• Nc1ncnc2c1c(-c1ccc(NC(=O)Nc3cc(C4(C(F)(F)F)CC4)no3)c(F)c1)cn2-c1cccnc1 = 501 to 1500 nM
• Nc1ncnc2c1c(-c1ccc(NC(=O)Nc3cc(C4(C(F)(F)F)CC4)no3)c(F)c1)cn2C1CC(O)C1 (stereo not drawn) = < 150 nM
• CN1CCC(n2cc(-c3ccc(NC(=O)Nc4cc(C5(C(F)(F)F)CC5)no4)c(F)c3)c3c(N)ncnc32)CC1 = 301 to 500 nM

* * *

Target: full-length recombinant human NEK7 (Homo sapiens (Human), UniProt Q8TDX7)
Sequence (Q8TDX7 whole entry): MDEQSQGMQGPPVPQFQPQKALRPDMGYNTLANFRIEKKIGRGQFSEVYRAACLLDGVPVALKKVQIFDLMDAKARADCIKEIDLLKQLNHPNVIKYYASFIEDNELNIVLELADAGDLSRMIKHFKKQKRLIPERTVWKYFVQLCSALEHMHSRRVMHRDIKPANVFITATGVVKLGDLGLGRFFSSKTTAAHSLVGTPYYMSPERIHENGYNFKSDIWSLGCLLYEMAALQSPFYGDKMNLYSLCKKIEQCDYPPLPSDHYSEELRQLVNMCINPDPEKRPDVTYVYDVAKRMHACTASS
Assay: NEK7 Enzymatic Assay ([33P]-ATP, casein substrate)
From the text: […]
pIC50: −log10 of the molar value.
Below is a list of entries, each paired with its recorded pIC50 value.
readoutKind: pIC50

- Nc1ncnc2c1c(-c1ccc(NC(=O)Nc3cc(C4CC4)on3)c(F)c1)cn2C1CC1: 6.30 to 6.52
- CC(C)(O)Cn1cc(-c2ccc(NC(=O)Nc3cc(C4(C(F)(F)F)CC4)no3)c(F)c2)c2c(N)ncnc21: 6.52 to 6.82
- CN1CCC(n2cc(-c3ccc(NC(=O)Nc4cc(C5(C(F)(F)F)CC5)no4)c(F)c3)c3c(N)ncnc32)C1 (stereo not drawn): 6.30 to 6.52
- Nc1ncnc2c1c(-c1ccc(NC(=O)Nc3cc(C4(C(F)(F)F)CC4)no3)c(Cl)c1)cn2C1CC1: < 5.82
- Nc1ncnc2c1c(-c1ccc(NC(=O)Nc3cc(C4(C(F)(F)F)CCC4)on3)c(F)c1)cn2C1CC1: > 6.82
- CC1(c2cc(NC(=O)Nc3ccc(-c4cn(C5CC5)c5ncnc(N)c45)cc3F)on2)CC1: > 6.82

Origin of the recorded values: patent US11161852B1
